What IC50 was measured for each of the following?
Biological target: Bcl-xL ΔC25 (Homo sapiens, UniProt Q07817)
Assay: AlphaScreen GST detection; competitor: biotinylated BimBH3 peptide
Bridge positions count the residues as written; N and C are the ends.
Give bare numbers, in nM.

Solved entries:
INSERT INTO measurements (binder, test_value) VALUES
  ('Ac-IAQQLRRIGDQF-NH2 [L2 Ac-…-NH2]', 960),
  ('Ac-IAQELRRIGDEF-NH2 [Linear 12mer Ac-…-NH2]', 7000);

// switching to the query binder
// IC50 lookup, binder = Ac-IAQELRRIGDEF-NH2 (linker 4-11 via 1,5‑diaminopentane) [Acetyl-IAQ(E1)LRRIGD(E2)F-amide with a 1,5-diaminopentane linker (second position)] , result: 57
